# Target under test: PDE1B (Homo sapiens, UniProt Q01064)
# Construct: purchased Reaction Biology Corporation, Malvern, Pa
# Sequence (Q01064 whole entry): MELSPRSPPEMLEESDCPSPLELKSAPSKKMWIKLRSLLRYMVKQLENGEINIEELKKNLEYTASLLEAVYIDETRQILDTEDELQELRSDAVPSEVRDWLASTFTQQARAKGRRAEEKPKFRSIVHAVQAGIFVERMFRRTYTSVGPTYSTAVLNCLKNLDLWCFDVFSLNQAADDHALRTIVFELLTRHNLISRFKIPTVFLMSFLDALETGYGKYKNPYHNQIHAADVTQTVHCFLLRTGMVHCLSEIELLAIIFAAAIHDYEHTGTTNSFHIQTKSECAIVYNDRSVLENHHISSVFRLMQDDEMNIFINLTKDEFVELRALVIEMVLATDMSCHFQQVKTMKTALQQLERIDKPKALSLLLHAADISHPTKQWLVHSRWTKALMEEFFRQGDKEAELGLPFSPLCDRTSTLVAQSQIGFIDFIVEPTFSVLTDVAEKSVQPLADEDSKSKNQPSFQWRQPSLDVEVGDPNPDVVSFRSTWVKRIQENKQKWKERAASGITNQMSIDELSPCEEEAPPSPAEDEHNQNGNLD
# Assay name: Phosphodiesterase enzyme screening assay, PDE1B
# Format: biochemical
# Cond: ratio of IC50 values PDE1B vs PDE9A2; value greater than 1 indicates greater selectivity for PDE9A2
Note to self: use Y only for PDE1B selectivity (versus PDE9A2) readings below 500; a reading exactly at 500 still gets N.

Some entries whose results are on file:
Cc1ccc(F)cc1-c1ncc2c(=O)[nH]c(C3CN(Cc4nc5ccccn5n4)CC3C)nn12 (single isomer, unassigned; (+)) | Y
Cc1cc(F)ccc1-c1ncc2c(=O)[nH]c(C3CN(Cc4ccc(Cl)cc4)CC3C)nn12 (single isomer, unassigned; (+)) | N
Cc1ccc(F)cc1-c1ncc2c(=O)[nH]c(C3CN(Cc4cnccn4)CC3C)nn12 (single isomer, unassigned; (+)) | Y
Cc1ccc(F)cc1-c1ncc2c(=O)[nH]c(C3CN(Cc4ccc(F)cc4)CC3C)nn12 (single isomer, unassigned; (+)) | Y

Data request: Consider the compound Cc1ccc(F)cc1-c1ncc2c(=O)[nH]c(C3CN(Cc4ccccn4)CC3C)nn12 (single isomer, unassigned; (+)) . Is its PDE1B selectivity (versus PDE9A2) strictly less than 500?
Data returned: Y

Data request: Consider the compound CC1CN(Cc2cn3ccccc3n2)CC1c1nn2c(C3CCC(F)(F)CC3)ncc2c(=O)[nH]1 (single isomer, unassigned; (+)) . Is its PDE1B selectivity (versus PDE9A2) strictly less than 500?
Data returned: N

Data request: Consider the compound Cc1cc(F)ccc1-c1ncc2c(=O)[nH]c(C3CN(Cc4ccccn4)CC3C)nn12 (single isomer, unassigned; (+)) . Is its PDE1B selectivity (versus PDE9A2) strictly less than 500?
Data returned: Y
